Each entry below carries its recorded log10(IC50).
Target or system: N-type calcium channel subunits (α1B, α2δ, and β3a) (Homo sapiens)
Assay procedure: Block of Cav2.2 channel, whole cell voltage clamp, manual and PatchXpress
Assay type: cell-based
Test settings: Table 5; table follows Assay Example 3 (whole cell voltage clamp / PatchXpress); assay not given
Remember, log10 of IC50, in nM.

1) CS(=O)(=O)c1cc(Cl)ccc1C(=O)N[C@H]1CC[C@@](F)(S(=O)(=O)c2cccc(C(F)(F)F)c2)CC1 [Compound 262] = 2.40
2) O=C(N[C@H]1CC[C@@](F)(S(=O)(=O)c2cccc(C(F)(F)F)c2)CC1)c1ccnn1CC(F)(F)F [Compound 245] = 2.11

Exercise: Which log10(IC50) value is on record for O=C(NC[C@H]1C[C@H](S(=O)(=O)c2cccc(C(F)(F)F)c2)C1)c1ccnc(C(F)(F)F)c1 [Compound 361] ?
Solution: 2.66

Exercise: Would you mind doing CN(C(=O)c1ccc(F)c(C(F)(F)F)c1)[C@H]1CC[C@@](F)(S(=O)(=O)c2cc(F)cc(C(F)(F)F)c2)CC1 [Compound 334] as well?
Solution: 2.56

* * *

Target or system: human α1H T-type channels (Homo sapiens, UniProt O95180)
Sequence (O95180 whole entry): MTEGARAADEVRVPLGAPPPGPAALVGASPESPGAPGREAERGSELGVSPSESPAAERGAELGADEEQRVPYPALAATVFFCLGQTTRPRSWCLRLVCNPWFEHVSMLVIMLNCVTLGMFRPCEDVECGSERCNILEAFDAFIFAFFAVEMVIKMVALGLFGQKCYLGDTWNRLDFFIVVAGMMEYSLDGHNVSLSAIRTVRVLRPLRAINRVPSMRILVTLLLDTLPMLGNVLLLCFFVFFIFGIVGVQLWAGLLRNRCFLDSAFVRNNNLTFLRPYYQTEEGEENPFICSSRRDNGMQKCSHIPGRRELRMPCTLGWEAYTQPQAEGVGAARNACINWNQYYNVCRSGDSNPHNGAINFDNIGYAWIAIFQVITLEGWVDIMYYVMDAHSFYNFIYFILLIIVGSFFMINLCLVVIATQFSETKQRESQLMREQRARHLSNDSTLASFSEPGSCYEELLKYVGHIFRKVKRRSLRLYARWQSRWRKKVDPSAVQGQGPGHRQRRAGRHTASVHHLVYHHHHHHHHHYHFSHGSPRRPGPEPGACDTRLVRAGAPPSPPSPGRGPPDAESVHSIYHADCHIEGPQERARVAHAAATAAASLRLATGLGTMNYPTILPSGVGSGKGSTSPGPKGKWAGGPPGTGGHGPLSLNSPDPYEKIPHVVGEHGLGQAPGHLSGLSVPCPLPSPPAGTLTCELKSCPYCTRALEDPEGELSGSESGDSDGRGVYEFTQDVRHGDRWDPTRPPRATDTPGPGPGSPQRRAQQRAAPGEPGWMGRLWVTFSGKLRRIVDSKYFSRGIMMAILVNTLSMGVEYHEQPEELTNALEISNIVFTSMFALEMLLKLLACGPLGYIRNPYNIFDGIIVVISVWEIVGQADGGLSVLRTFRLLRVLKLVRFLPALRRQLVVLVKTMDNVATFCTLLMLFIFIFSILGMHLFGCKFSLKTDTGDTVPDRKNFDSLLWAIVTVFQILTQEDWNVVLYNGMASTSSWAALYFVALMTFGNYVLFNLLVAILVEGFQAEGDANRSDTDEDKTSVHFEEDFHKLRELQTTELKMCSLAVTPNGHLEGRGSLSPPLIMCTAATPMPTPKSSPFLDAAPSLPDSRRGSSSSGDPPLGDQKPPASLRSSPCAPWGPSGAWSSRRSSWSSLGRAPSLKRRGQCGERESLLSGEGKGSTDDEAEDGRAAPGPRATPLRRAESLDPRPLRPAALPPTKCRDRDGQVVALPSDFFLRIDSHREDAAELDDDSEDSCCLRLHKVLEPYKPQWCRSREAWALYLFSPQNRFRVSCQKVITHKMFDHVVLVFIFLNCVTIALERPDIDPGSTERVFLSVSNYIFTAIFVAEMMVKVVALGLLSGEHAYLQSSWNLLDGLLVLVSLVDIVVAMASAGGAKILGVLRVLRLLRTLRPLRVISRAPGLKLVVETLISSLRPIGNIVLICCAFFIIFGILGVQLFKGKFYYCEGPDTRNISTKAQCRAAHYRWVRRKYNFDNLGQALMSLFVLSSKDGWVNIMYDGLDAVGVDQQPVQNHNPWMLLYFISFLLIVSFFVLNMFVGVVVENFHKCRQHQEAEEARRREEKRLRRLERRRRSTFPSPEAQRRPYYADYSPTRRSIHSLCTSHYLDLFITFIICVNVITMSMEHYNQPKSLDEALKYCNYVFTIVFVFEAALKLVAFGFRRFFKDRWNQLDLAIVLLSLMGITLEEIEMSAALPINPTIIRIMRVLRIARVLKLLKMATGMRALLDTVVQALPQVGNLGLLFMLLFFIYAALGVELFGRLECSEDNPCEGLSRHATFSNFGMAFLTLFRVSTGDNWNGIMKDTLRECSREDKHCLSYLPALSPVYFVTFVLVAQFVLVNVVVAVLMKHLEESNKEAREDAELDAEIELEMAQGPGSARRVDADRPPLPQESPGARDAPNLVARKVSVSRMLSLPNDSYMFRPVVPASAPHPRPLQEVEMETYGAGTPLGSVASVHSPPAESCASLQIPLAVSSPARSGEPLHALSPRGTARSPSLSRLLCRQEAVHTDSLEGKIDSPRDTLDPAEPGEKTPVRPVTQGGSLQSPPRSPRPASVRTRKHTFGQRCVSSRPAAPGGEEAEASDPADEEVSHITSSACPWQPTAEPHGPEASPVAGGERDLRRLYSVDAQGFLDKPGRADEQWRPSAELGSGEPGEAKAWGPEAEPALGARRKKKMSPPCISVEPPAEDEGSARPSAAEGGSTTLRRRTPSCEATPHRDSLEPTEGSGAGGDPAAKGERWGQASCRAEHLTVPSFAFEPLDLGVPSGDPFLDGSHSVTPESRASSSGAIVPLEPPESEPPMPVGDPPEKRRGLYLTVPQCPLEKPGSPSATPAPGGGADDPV
Assay procedure: T-type calcium channel block, whole cell patch clamp, α1H
Type: cell-based
Test settings: HEK cells stably expressing human α1H; mainly non-inactivated protocol; values above 10,000 nM represented as 10000
Each entry below carries its recorded IC50.
Numbers only; they are read as µM.

1. O=C(N[C@H]1CC[C@](F)(S(=O)(=O)c2cccc(C(F)(F)F)c2)CC1)c1cc(C(F)(F)F)ccn1 = 0.44

Exercise: Which IC50 value is on record for O=C(NC[C@H]1C[C@H](S(=O)(=O)c2cccc(C(F)(F)F)c2)C1)c1ccnn1CC(F)(F)F ?
Solution: 0.35

Exercise: Would you mind doing CC(C)(CCNC(=O)c1ccc(Cl)cc1S(C)(=O)=O)S(=O)(=O)c1cccc(C(F)(F)F)c1 as well?
Solution: 9.69

Exercise: Would you mind doing O=C(N[C@H]1CC[C@@](F)(S(=O)(=O)c2cccc(C(F)(F)F)c2)CC1)[C@H]1C[C@@H]1c1ccccc1 as well?
Solution: 2.44

Exercise: Would you mind doing CC(C)(CNC(=O)c1cn2ccc(C(F)(F)F)cc2n1)S(=O)(=O)c1cccc(C(F)(F)F)c1 as well?
Solution: 9.93

* * *

Target or system: Human Cav 2.2 channels (Homo sapiens, UniProt Q00975)
Assay procedure: Fluorescent assay for CaV2.2 channels using potassium depolarization (VIPR/FLIPR)
Assay type: cell-based
Test settings: FLIPR data; ratio closed/inactivated IC50
Each entry below carries its recorded CAv2.2 IC50 Ratio closed/inact..

Some solved cases for reference:
1) CC(C)([C@H]1C[C@H](NC(=O)c2ccc(F)c(Cl)c2)C1)S(=O)(=O)c1cc(F)cc(C(F)(F)F)c1 = 8.4
2) CC(C)([C@H]1C[C@@H](NS(=O)(=O)c2ccc(C(F)(F)F)cc2)C1)S(=O)(=O)c1cccc(C(F)(F)F)c1 = 12.5
3) CC(C)([C@H]1C[C@@H](CNC(=O)c2ccc(OCC(F)(F)F)nc2)C1)S(=O)(=O)c1cccc(C(F)(F)F)c1 = 9.5

Note: attention shifts to another entry.
Exercise: Which CAv2.2 IC50 Ratio closed/inact. value is on record for CC(C)([C@H]1C[C@@H](CNC(=O)c2ccnc(C(F)(F)F)c2)C1)S(=O)(=O)c1cccc(C(F)(F)F)c1 ?
Solution: 7.8
